- assay details: plasma exposure after oral administration
- Format: in vivo, male CD-1 mice
- study conditions: male, CD-1, mouse, plasma, po, 10 mg/kg, single PO dose 10 mg/kg (Group 1), 0.5 hr; read-out: Plasma Concentrations, Group A, B, C
observation type: concentration at 0.5 h (ng/mL)
Give bare numbers, in ng/mL.

Requested field: concentration at 0.5 h. Item: O=C(Cc1ccc(-c2ccc(OCCN3CCOCC3)cc2)cn1)NCc1ccccc1 [KX2-391] 779

====

- Test system: Hep 3B
- assay details: MTT growth inhibition, Hep 3B
- Format: cell-based, human
- study conditions: Hep 3B, 8.0×10^3 cells/wells, […] FBS @ 78 Hr
- Method: Samples of the test compounds were formulated in 100% DMSO to obtain 20 mM stock solutions; stored @ 4° C. The IC50s and IC80s were determined as described below. […] OD570 measurements were taken using BioTek Synergy HT multiplatform microplate reader. Growth inhibition curves IC50s and IC80s were determined using GraphPad Prism 5 statistical software.
observation type: IC50 (nM)
Give bare numbers, in nM.

Please look up its IC50: O=C(Cc1ccc(-c2ccc(OCCN3CCOCC3)cc2)cn1)NCc1ccccc1 26

====

- System: HT29 cell line
- assay details: BrdU cell growth inhibition, HT29
- Format: cell-based, human
- study conditions: Homo sapiens, HT-29, HT29 (Colon) cells; read-out: GI50
observation type: GI50 (µM)
One number for each entry, in µM.

compound	display unit	readout number
O=C(Cc1ccc(-c2ccncc2)cc1)NCc1cccc(F)c1	µM	0.68
O=C(Cc1ccc(-c2ccccc2)cc1)NCc1cccc(F)c1 [KX1-305, N(3-fluoro-benzyl)-4-biphenylacetamide]	µM	0.877

For the 5 compounds below, give their GI50 values.
1. O=C(Cc1ccc(-c2ccc(OCCN3CCOCC3)cc2)cn1)NCc1cccc(F)c1
2. O=C(Cc1ccc(-c2ccc(OCCN3CCOCC3)cc2F)cn1)NCc1cccc(F)c1
3. O=C(Cc1ccc(-c2ccc(CN3CCOCC3)cc2)cn1)NCc1cccc(F)c1
4. CN1CCN(CCOc2cc(OC3CCOCC3)c3c(Nc4c(Cl)ccc5c4OCO5)ncnc3c2)CC1 [AZD0530, reference compound]
5. CC(C)COc1cc(F)cc(CNC(=O)Cc2ccc(-c3ccc(OCCN4CCOCC4)cc3)cn2)c1

0.111
0.021
0.056
0.33
1.86

====

- assay details: brain exposure after oral administration
- Assay type: in vivo, male CD-1 mice
- study conditions: male, CD-1, mouse; Brain, single oral dose 10 mg/kg
observation type: Tmax (min)
Numbers only, in min.

Requested field: Tmax. Item: O=C(Cc1ccc(-c2ccc(OCCN3CCOCC3)cc2)cn1)NCc1ccccc1 [KX2-391] 30

====

- assay details: brain exposure after oral administration
- Format: in vivo, male CD-1 mice
- study conditions: male, CD-1, mouse, brain, po, 50 mg/kg, Male CD-1 mice, single PO dose 50 mg/kg (Group 4), 1 hr, Group A; read-out: KX2-391 Brain Concentrations, Group A
- Method: Plasma concentrations were measured in mice after oral administration. All doses were formulated in purified water. Four groups of male CD-1 mice were dosed after an overnight fast and fed 4 hours post-dose. Dosing was as follows: Protein was precipitated with 0.25 mL acetonitrile for plasma, 0.25 mL for brain. After centrifugation, supernatant was directly injected into an LC/MS system. The limit of quantitation was 1 ng/mL using a 50 μL aliquot for plasma and a 50 μL, aliquot for brain. […]
observation type: concentration at 1 hr (ng/g)
Give bare numbers, in ng/g.

What does the data say about its concentration at 1 hr? Entry: O=C(Cc1ccc(-c2ccc(OCCN3CCOCC3)cc2)cn1)NCc1ccccc1 851
